Parameter IC50: see the listing below.
target: NPY Y2 receptor (Homo sapiens); construct: endogenous in cells; host or cells: KAN-Ts cells (membrane preparation); assay: Neuropeptide Y2 radioligand binding assay ([125I]PYY, KAN-Ts cell membranes); conditions: membranes of KAN-Ts cells endogenously expressing Y2 receptors; [125I]PYY 80 pM; 1 h at rt; read-out: IC50 (μM), NPY Y2 binding
Answer with a number only, understood to be in µM.

compound="CCN(CC)C(=O)C(c1ccccc1)N1CCN(c2ccc(-c3nc(C(C)C)no3)cc2C=O)CC1 (stereo not drawn) [Compound 256]" unit_of_measure=µM observed_measurement=0.17

Given the entry CCN(CC)C(=O)C(c1ccccc1)N1CCN(c2ccc(-c3nc(C)no3)cc2C#N)CC1 (stereo not drawn) [Compound 217] , report its measured IC50.
0.023

What does the record list as IC50 for CCN(CC)C(=O)C(c1ccccc1)N1CCN(c2ccc(-c3ccccc3OC)cc2F)CC1 (stereo not drawn) [Compound 214] ?
0.078

====

target: NPY Y2 receptor (Homo sapiens, UniProt P49146); construct: endogenous in cells; host or cells: KAN-Ts cells (membrane preparation); assay: Neuropeptide Y2 radioligand binding assay ([125I]PYY, KAN-Ts cell membranes); conditions: membranes of KAN-Ts cells endogenously expressing Y2 receptors; [125I]PYY 80 pM; 1 h at rt; read-out: IC50 (μM), NPY Y2 binding
Sequence (P49146 whole entry): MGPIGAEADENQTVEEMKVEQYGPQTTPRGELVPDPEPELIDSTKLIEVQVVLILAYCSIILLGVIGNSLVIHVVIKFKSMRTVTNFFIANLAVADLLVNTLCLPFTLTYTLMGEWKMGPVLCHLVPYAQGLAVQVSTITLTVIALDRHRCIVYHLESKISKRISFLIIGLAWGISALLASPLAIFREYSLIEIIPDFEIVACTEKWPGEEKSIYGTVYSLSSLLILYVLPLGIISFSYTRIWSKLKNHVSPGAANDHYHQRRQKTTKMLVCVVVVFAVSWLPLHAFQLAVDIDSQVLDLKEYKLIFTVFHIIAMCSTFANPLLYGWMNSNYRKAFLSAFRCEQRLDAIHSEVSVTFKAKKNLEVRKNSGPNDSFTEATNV
METRIC: log10 IC50 (log10 of the value in µM)
Please interpret these as log10 of IC50 where IC50 is in µM.

Known results for compounds:
compound="CCN(CC)C(=O)C(c1ccccc1)N1CCN(c2ccc(-c3noc(C#N)n3)cc2F)CC1 (centres unmarked)" metric="log10 IC50" observed_measurement=0.61
compound="CCN(CC)C(=O)C(c1ccccc1)N1CCN(c2ccc(-c3nc(C)no3)cc2Br)CC1 (centres unmarked)" metric="log10 IC50" observed_measurement=-0.82
compound="CCCCC(C(=O)N(CC)CC)N1CCN(c2ccc(-c3nc(C)no3)cc2F)CC1 (centres unmarked)" metric="log10 IC50" observed_measurement=0.45
compound="Cc1noc(-c2ccc(N3CCN(C(C(=O)OC(C)(C)C)c4ccccc4)CC3)c(F)c2)n1 (centres unmarked)" metric="log10 IC50" observed_measurement=-0.18

Lab note: next compound to report on.
Requested read-out: log10 IC50. Entry: CCN(CC)C(=O)C(c1ccccc1)N1CCN(c2ccc(-c3ccccc3)cc2F)CC1 (centres unmarked)
-0.38
